Measurement protocol: Degree of solubility in propylene glycol monomethyl ether acetate (PGMEA)
Format: physicochemical
Test parameters: in propylene glycol monomethyl ether acetate (PGMEA)
Parameter measured: Degree of solubility (%)

FC(F)(F)c1cccc([S+](c2ccccc2)c2ccccc2)c1 [A-9]; S (30% or more)
Fc1cccc([S+](c2ccccc2)c2ccccc2)c1 [A-2]; S (30% or more)
FC(F)(F)c1cccc([S+](c2ccccc2)c2ccccc2)c1 [A-7]; S (30% or more)

---

Measurement protocol: Degree of solubility in propylene glycol monomethyl ether acetate (PGMEA)
Assay type: physicochemical
Test parameters: in propylene glycol monomethyl ether acetate (PGMEA)
Parameter measured: Degree of solubility (%)

FC(F)(F)c1cccc([S+](c2ccccc2)c2ccccc2)c1 [A-8]; S (30% or more)
Fc1cccc([S+](c2ccccc2)c2ccccc2)c1 [A-4]; S (30% or more)
Fc1cccc([S+](c2ccccc2)c2ccccc2)c1 [A-3]; S (30% or more)
